- Tested on: Plasmodium falciparum
- MEASUREMENT DESCRIPTION: Primary screen in NF54 nanoGlo assay, in single point, at 2uM, 72h
- Type: functional, Erythrocyte
- CONDITION LABEL: timepoint 72 hour
The campaign covered roughly 150,000 compounds. About 540 (0.36%) showed an effect of 50% or more. Many of the other results were omitted from the sample, so strong results are more common in it than they were.

MOLECULE: Cc1nc2ccc(NC(=O)Nc3ccc(F)cc3F)cc2s1
UNIT: %
% Inhibition: -9
//
MOLECULE: O[C@@H](Cc1ccc2ccccc2n1)c1ccccc1
UNIT: %
% Inhibition: 33
//
MOLECULE: COC1CCCCC1NC(=O)Nc1cccc(-c2ncc(C)o2)c1 (stereo not given)
UNIT: %
% Inhibition: -3
//
MOLECULE: Cc1cc(C)cc(N(CCC#N)C(=O)CN2CCC[C@H]2c2ccc3c(c2)OCCCO3)c1
UNIT: %
% Inhibition: -2
//
MOLECULE: CNc1nc(N2C[C@H](C)[C@@](O)(C3CC3)C2)nc2c1CCC2
UNIT: %
% Inhibition: 100
//
MOLECULE: C[C@H]1CCN(c2nc(-c3ccccn3)nc3c2CCC3)C1
UNIT: %
% Inhibition: 90
//
MOLECULE: Cc1nnc(CN(C)Cc2ccc3ccccc3n2)o1
UNIT: %
% Inhibition: -21
//
MOLECULE: CCn1cc(CN2CCN3C(=O)N(c4ccccc4)C(=O)[C@@H]3C2)cn1
UNIT: %
% Inhibition: -2
//
MOLECULE: CC(C)Nc1nc2nonc2n2cnnc12
UNIT: %
% Inhibition: 77
//
MOLECULE: Cc1cc(N(C)C)nc(NCCNC(=O)Nc2cccc(F)c2C)n1
UNIT: %
% Inhibition: 20
//
MOLECULE: Cc1nc2ccc(NC(=O)C3C4C=CC(C4)C3C(=O)O)cc2s1 (stereo not given)
UNIT: %
% Inhibition: 7
//
MOLECULE: Cc1c2c(=O)n(-c3nc4ccccc4s3)n(Cc3ccc(F)cc3)c2cc(=O)n1CCCN1CCOCC1
UNIT: %
% Inhibition: 32
//
MOLECULE: C[C@H]1CCCN(c2nc(-c3ccccn3)nc3ccccc23)C1
UNIT: %
% Inhibition: 96
//
MOLECULE: O=C(O)[C@H]1CCCN(c2nc(-c3ccsc3)nc3ccccc23)C1
UNIT: %
% Inhibition: -12
//
MOLECULE: Cc1ccccc1OCC(=O)NS(C)(=O)=O
UNIT: %
% Inhibition: -1
//
MOLECULE: Cc1cccnc1CCNC(=O)N(C)[C@@H](C)c1ccncn1
UNIT: %
% Inhibition: -6
//
MOLECULE: FC(F)(F)[C@H]1CCCN(c2nc(-c3cccnc3)nc3ccccc23)C1
UNIT: %
% Inhibition: 8
//
MOLECULE: CCNc1nc(C)cc(Nc2ccc(NC(=O)c3cc(C)ccc3C)cc2)n1
UNIT: %
% Inhibition: 97
//
MOLECULE: CCOC(=O)c1nc(NCC2CCN(Cc3ccccc3F)CC2)c2ccccc2n1
UNIT: %
% Inhibition: -6
//
MOLECULE: CCNc1nc(C)cc(Nc2ccc(NS(=O)(=O)c3c(C)noc3C)cc2)n1
UNIT: %
% Inhibition: 86
//
MOLECULE: CNc1cc(C)nc(N2C[C@H](C)[C@@](O)(C3CC3)C2)n1
UNIT: %
% Inhibition: 7
//
MOLECULE: NC(=O)C[C@H]1CCN(c2nc(-c3ccccn3)nc3c2CCC3)C1
UNIT: %
% Inhibition: -8
//
MOLECULE: O=S(=O)(NC1CCc2ccc(Cl)cc21)[C@H]1COC[C@@H]1O (stereo not given in full)
UNIT: %
% Inhibition: -11
//
MOLECULE: CCn1c(N)c(-c2nc3ccccc3[nH]2)c(=O)c2ccccc21
UNIT: %
% Inhibition: -1
//
MOLECULE: CCOC(=O)c1cn(CC)c2cc(NC3CCCCC3)c(F)cc2c1=O
UNIT: %
% Inhibition: 67
//
MOLECULE: O=C(NCCN1CCC[C@H](CO)C1)c1cccc(-c2ccc3occc3c2)c1
UNIT: %
% Inhibition: -3
//
MOLECULE: C[C@@H](CNC(=O)C(C)(C)C)c1ccccc1
UNIT: %
% Inhibition: -10
//
MOLECULE: Cc1ccc(C(F)(F)C(=O)NCCC(=O)NS(C)(=O)=O)cc1
UNIT: %
% Inhibition: 57
//
MOLECULE: c1ccc(-c2nc(C[n+]3ccc4c(c3)CCCC4)cs2)cc1
UNIT: %
% Inhibition: 63
//
MOLECULE: COc1ccc([C@@H]2N(c3ccc(Cl)cc3)OC(=O)N2c2ccccc2)cc1
UNIT: %
% Inhibition: 1
//
MOLECULE: Nc1c(S(=O)(=O)c2ccc(Cl)cc2)c2nc3ccccc3nc2n1Cc1ccc(F)cc1
UNIT: %
% Inhibition: -2
//
MOLECULE: Cc1cc(C(=O)N(CC2CCC2)CC(F)(F)F)[nH]n1
UNIT: %
% Inhibition: -10
//
MOLECULE: c1ccc(-c2nc(CN3CCCCCCC3)cs2)cc1
UNIT: %
% Inhibition: -10
//
MOLECULE: CCn1c(-c2cc(NC(=O)c3ccncc3)[nH]n2)cc2ccc(OC)cc21
UNIT: %
% Inhibition: 34
//
MOLECULE: CCn1c(-c2cc(NC(=O)c3ccc4c(c3)OCO4)[nH]n2)cc2ccc(OC)cc21
UNIT: %
% Inhibition: 52
//
MOLECULE: CCc1ccccc1Nc1c2c(nc3ccccc13)CCCC2
UNIT: %
% Inhibition: 9
//
MOLECULE: c1ccc2c[n+](Cc3ccc4ccccc4n3)ccc2c1
UNIT: %
% Inhibition: 59
//
MOLECULE: CCOC(=O)c1cn(CC2CCCCC2)c2nc(C)ccc2c1=O
UNIT: %
% Inhibition: 23
//
MOLECULE: O=C(NCCc1nc2ccccc2[nH]1)C(F)(F)c1ccc(F)cc1
UNIT: %
% Inhibition: 4
//
MOLECULE: Cc1cncc(C(=O)NC[C@@H](CO)Cc2ccc(Cl)cc2)c1
UNIT: %
% Inhibition: -7
//
MOLECULE: COc1ccc(-n2c(-c3sc(Nc4ccc(Cl)cc4)nc3C)nc3ccccc3c2=O)cc1
UNIT: %
% Inhibition: -3
//
MOLECULE: Nc1c(-c2nc3ccccc3[nH]2)c2nc3ccccc3nc2n1Cc1ccccc1F
UNIT: %
% Inhibition: 78
//
MOLECULE: Cc1cc2c(=O)c(C(=O)c3ccncc3)cn(CC(=O)NC3CCCCC3)c2cc1F
UNIT: %
% Inhibition: -1
//
MOLECULE: O=C(NCc1cccnc1)c1coc(CN(Cc2ccccc2)Cc2ccccc2C(F)(F)F)n1
UNIT: %
% Inhibition: 0
//
MOLECULE: Cc1cc(C(=O)N2CCC[C@H](C(=O)c3ccc4c5c(cccc35)CC4)C2)nc(N)n1
UNIT: %
% Inhibition: -4
